The origin of these recorded values is patent US8609647B2.

biological target: hJAK3 kinase domain (aa781-end) (Homo sapiens (Human), UniProt P52333)
Sequence (P52333 781-1124 limits assumed): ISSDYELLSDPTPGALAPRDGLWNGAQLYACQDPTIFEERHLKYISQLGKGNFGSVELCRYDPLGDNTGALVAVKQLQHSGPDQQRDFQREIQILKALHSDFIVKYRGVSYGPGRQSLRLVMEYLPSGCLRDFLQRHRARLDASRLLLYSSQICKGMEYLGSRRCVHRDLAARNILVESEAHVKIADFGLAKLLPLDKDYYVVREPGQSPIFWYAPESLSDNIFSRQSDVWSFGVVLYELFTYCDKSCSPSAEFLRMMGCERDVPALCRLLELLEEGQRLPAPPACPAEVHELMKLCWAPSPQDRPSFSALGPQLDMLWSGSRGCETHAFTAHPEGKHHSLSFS
pIC50: −log10 of the molar value.

molecule	pIC50
N#CCCN1CCCC12CCN(c1ncnc3[nH]ccc13)C2 (racemic)	7.25
